Data credit: patent US20260216169A1

Tested on: Molt-4 cells
Experiment: Effects on tumor cell cycle, PI staining and flow cytometry
Type: cell-based, human
Conditions: dose 1 μM, 48 h
Apoptosis (%) DNA < 2N listing for selected compounds.
Quantity Name: Apoptosis (%) DNA < 2N

>  <Compound>
COc1cc(F)c2c(Oc3ccc4c(C(=O)Nc5ccc(F)c(F)c5N)cccc4c3)ccnc2c1

>  <Quantity Name>
Apoptosis (%) DNA < 2N

>  <Result>
22.55 ± 0.21%

$$$$
>  <Compound>
COc1ccc2c(Oc3ccc4c(C(=O)Nc5ccc(F)c(F)c5N)cccc4c3)ccnc2c1

>  <Quantity Name>
Apoptosis (%) DNA < 2N

>  <Result>
24.60 ± 8.06%

$$$$
>  <Compound>
COc1ccc2c(Oc3ccc4c(C(=O)Nc5ccccc5N)cccc4c3)ccnc2c1 [Control molecule 01, chiauranib, reference compound]

>  <Quantity Name>
Apoptosis (%) DNA < 2N

>  <Result>
10.23 ± 0.67%

$$$$
>  <Compound>
COc1ccc2c(Oc3ccc4c(C(=O)Nc5ccc(F)cc5N)cccc4c3)ccnc2c1 [Control molecule 02, reference compound]

>  <Quantity Name>
Apoptosis (%) DNA < 2N

>  <Result>
10.07 ± 1.18%

$$$$
